The following compounds are shown together with reported melting point values.

# COMPOUND, melting point
rows = [
    ("CC(=O)N1CCC(CC(=O)N2CCN(Cc3ccccc3-c3ccc(Cl)c(Cl)c3)C[C@@H]2C(C)(C)C)CC1 [Example 106]", "62.1 to 63.6 °C"),
    ("CC(C)[C@H]1CN(C(C)c2ccc(Cl)cc2)CCN1C(=O)CC1CCN(C(N)=O)CC1 (stereo partly drawn) [Example 101]", "76 to 82 °C"),
]

Please report melting point for the following compound: CC(C)(C)[C@H]1CN(C(CCC(F)(F)F)c2ccc(C(F)(F)F)cc2)CCN1C(=O)CC1CCN(C(N)=O)CC1 (stereo partly drawn) [Example 117]
76 to 80 °C

Please report melting point for the following compound: CC(=O)N1CCC(CC(=O)N2CCN(Cc3ccc(-c4ccc(Cl)c(Cl)c4)cn3)C[C@@H]2C(C)(C)C)CC1 [Example 107]
145.7 to 147 °C

Please report melting point for the following compound: CC(C)(C)[C@H]1CN(Cc2ccccc2-c2ccc(Cl)c(Cl)c2)CCN1C(=O)CC1CCN(C(N)=O)CC1 [Example 114]
98.8 to 102.4 °C

###

ASSAY_READOUT: melting point

# COMPOUND, melting point
data = [
    ("CC(=O)N1CCC(CC(=O)N2CCN(C(CC3CC3)c3ccc(Cl)c(Cl)c3)C[C@@H]2C(C)(C)C)CC1 (stereo partly shown) [Example 109]", "61 to 63 °C"),
]

Please report melting point for the following compound: CC(C)(C)[C@H]1CN(C(CC2CC2)c2ccc(Cl)c(Cl)c2)CCN1C(=O)CC1CCN(C(N)=O)CC1 (stereo partly shown)
91 to 94 °C

Please report melting point for the following compound: CC(=O)N1CCC(CC(=O)N2CCN(C(CCC(F)(F)F)c3ccc(C(F)(F)F)cc3)C[C@@H]2C(C)(C)C)CC1 (stereo partly shown)
61 to 63 °C

Please report melting point for the following compound: "CC(C)(C)[C@H]1CN(Cc2ccc(-c3ccc(Cl)c(Cl)c3)cn2)CCN1C(=O)CC1CCN(C(N)=O)CC1"
95.2 to 98 °C

###

The following molecules are shown together with reported melting point values.

// below: answered molecules
# MOLECULE, melting point
rows = [
    ("CC(C)(C)[C@H]1CN(Cc2ccc(Cl)c(Cl)c2)CCN1C(=O)CC1CCN(C(N)=O)CC1 [Example 113]", "80 to 85 °C"),
    ("CC(=O)N1CCC(CC(=O)N2CCN(C(CC3CC3)c3ccc(Cl)c(Cl)c3)C[C@@H]2C(C)(C)C)CC1 (stereo partly drawn) [Example 110]", "61 to 65 °C"),
]

Now for a further molecule.
Please report melting point for the following molecule: CC(=O)N1CCC(CC(=O)N2CCN(Cc3ccc(Cl)c(Cl)c3)C[C@@H]2C(C)(C)C)CC1 [Example 104]
49 to 53 °C
